These entries and their values trace back to patent US11065244B2.

Measured IC50 accompanies every entry in the list below.
- study.system: KATP channels in SNc DA neurons (Rattus norvegicus, UniProt P70673+Q09429)
- Construct: functional KATP channels natively expressed on midbrain dopamine neurons
- Sequence (P70673 whole entry): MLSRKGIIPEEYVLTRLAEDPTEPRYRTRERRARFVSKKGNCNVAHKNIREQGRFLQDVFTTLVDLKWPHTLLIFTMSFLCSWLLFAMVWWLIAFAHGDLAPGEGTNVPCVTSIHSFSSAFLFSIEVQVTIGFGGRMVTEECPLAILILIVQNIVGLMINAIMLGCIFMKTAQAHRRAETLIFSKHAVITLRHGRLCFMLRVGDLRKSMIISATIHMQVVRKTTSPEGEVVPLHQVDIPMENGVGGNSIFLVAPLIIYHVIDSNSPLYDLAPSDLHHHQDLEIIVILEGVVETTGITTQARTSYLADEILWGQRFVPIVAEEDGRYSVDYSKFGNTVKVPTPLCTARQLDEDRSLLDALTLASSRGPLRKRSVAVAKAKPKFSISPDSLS
- Sequence (Q09429 whole entry): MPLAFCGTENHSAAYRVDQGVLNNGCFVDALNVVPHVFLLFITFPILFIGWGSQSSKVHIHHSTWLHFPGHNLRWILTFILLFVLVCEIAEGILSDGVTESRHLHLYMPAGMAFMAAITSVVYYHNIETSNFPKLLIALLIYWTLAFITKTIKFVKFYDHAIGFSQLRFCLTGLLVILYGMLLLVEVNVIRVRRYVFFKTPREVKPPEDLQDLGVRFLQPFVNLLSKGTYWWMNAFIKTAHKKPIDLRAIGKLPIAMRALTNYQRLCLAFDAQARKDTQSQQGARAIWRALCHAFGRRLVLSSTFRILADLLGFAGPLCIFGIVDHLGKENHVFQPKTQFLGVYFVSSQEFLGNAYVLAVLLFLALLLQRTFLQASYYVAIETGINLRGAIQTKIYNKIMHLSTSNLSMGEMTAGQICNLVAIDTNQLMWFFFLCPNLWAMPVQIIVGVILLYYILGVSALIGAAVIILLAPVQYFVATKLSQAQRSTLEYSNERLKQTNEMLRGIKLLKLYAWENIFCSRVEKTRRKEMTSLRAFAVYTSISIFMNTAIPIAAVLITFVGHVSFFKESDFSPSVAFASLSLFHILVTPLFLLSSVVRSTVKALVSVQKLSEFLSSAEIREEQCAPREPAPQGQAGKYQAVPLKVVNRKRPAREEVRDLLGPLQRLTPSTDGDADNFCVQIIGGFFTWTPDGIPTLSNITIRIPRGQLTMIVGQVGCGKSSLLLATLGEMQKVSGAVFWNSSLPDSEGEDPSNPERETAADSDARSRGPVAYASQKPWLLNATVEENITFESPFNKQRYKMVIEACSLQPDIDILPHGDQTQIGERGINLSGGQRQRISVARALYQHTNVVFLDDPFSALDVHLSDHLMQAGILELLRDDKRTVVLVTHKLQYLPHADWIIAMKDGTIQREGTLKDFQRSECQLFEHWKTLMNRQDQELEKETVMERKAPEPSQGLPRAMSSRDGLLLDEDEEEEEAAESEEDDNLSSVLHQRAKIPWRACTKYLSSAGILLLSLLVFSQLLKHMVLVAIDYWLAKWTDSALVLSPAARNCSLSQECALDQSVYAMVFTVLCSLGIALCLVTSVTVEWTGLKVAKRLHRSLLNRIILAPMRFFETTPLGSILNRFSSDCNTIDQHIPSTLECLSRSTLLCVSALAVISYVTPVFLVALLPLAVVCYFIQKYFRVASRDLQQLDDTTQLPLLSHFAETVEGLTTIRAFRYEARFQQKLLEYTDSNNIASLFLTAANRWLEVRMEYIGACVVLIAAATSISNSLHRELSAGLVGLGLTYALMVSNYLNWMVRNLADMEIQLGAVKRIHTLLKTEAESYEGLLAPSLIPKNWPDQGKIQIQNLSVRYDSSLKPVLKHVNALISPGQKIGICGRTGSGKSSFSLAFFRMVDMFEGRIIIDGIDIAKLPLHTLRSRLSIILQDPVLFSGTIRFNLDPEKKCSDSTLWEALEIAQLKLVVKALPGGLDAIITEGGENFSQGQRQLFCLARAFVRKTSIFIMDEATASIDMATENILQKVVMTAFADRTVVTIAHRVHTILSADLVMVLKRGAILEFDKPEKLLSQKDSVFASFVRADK
- test.description: Perforated patch current-clamp recording of rotenone-opened KATP channels in dissociated SNc DA neurons
- run.conditions: membrane depolarization in the presence of rotenone; read-out: IC50 of concentration-effect relationship curve (block of KATP channels)
Please respond with the number in µM and leave the unit unwritten.

{"molecule": "COc1ccc2c(c1OC)CN1CCc3cc4c(cc3C1C2)OCO4 (centres unmarked) [THB, tetrahydroberberine]", "recorded.metric": "IC50", "units.label": "µM", "value.measured": 13.1}

Here is another molecule to look at.
The recorded IC50 for CCCCNC(=O)NS(=O)(=O)c1ccc(C)cc1 [tolbutamide] is 10.4
